System: HOP-62 NSCLC
testName: NCI-60 one-dose screen, 48 h (100 = growth as untreated, 0 = no growth, -100 = all killed)
experimentalSetup: 10 µM unless noted
This is part of a sample that, as a whole, favours compounds with a hit. Of some 83,000 tested, about 20% had one in any assay.
Here, each record is paired with measured growth data.
Report the value in % with no unit label.

Guide cases for growth, answers given:
{"compoundSmiles": "CCOC(=O)CSc1nc2sc3c(c2c(=O)n1-c1ccccc1)CCCCC3", "valueUnit": "%", "testValue": 97.6}
{"compoundSmiles": "COc1ccc(NC(=O)CSc2oc(-c3ccccc3)nc2S(=O)(=O)c2ccc(Cl)cc2)c(OC)c1", "valueUnit": "%", "testValue": 51}
{"compoundSmiles": "O=C(CN1C(=O)c2ccccc2S1(=O)=O)Nc1nc(-c2cc3ccccc3oc2=O)cs1", "valueUnit": "%", "testValue": 105}
{"compoundSmiles": "COC(=O)c1c(C)nc(C)c2c1C(=O)C(Br)=C(NCCN1CCOCC1)C2=O", "valueUnit": "%", "testValue": 133}

Could you now consider this next compound?
Looking up CS(=O)(=O)c1cccc(Nc2ncc3cc(-c4ccccc4Cl)ccc3n2)c1 , I found its growth recorded as 15.3
